- System: SW872
- Experiment Notes: Cytotoxicity against human SW872 cells after 72 hrs by [3H]thymidine incorporation assay
- Type: functional, cell-based
molecules and their reported IC50
# value in µM; strip the unit string

Some entries whose results are on file:
Mol: C=C1C(=O)O[C@]23C[C@H]1CCC(CO)=C2C(=O)C=C3C
Unit Of Measurement: µM
IC50: 2.8
--
Mol: C=C1C(=O)O[C@@H]2C[C@@H](C)[C@@H]3C=CC(=O)[C@@]3(C)[C@@H](O)[C@H]12
Unit Of Measurement: µM
IC50: 1.2

Pending molecule:
q: Can you share its IC50? I mean this molecule: C=C(C(=O)O[C@@H]1[C@@H](O)[C@H](O)[C@@H](OCC2=C3C(=O)C=C(C)[C@@]34C[C@@H](CC2)C(=C)C(=O)O4)O[C@H]1CO)[C@@H]1CCC(CO)=C2C(=O)C=C(C)[C@@]2(O)C1
a: 1.4

Origin of values: ChEMBL document CHEMBL1144069
